Test Protocol: logP determination by HPLC on a reversed-phase column (C 18), EEC Directive 79/831 Annex V.A8
Type: physicochemical
Condition Set: method marked [b] in Table 1
Recorded Metric: logP

Sample CC1=NOC(CON=C(C)c2cccc(C)n2)(CON=C(C)c2cccc(C)n2)C1 (centres unmarked) [compound 596] — what was its logP?
2.20^[b]

Given CCC(=NOCC1(CON=C(CC)c2cccc(C)n2)CC(CC(C)C)=NO1)c1cccc(C)n1 (centres unmarked) [compound 609] , state its recorded logP.
5.21^[b]

Any idea what logP was measured for N/C(=N\OCc1cccc(CO/N=C(\N)c2ncc(F)cc2F)c1)c1ncc(F)cc1F [compound 714] ?
2.96^[b]

# lookup: logP of CC(=NOC(=O)N(C)C(=O)ON=C(C)c1cc(C)cc(C)n1)c1cc(C)cc(C)n1 [compound 676]
2.21^[b]

Form field: reported logP of CC(=NOCC(C)CON=C(C)c1ccc[nH]1)c1ccc[nH]1 (mixture of isomers) [compound 566]
3.47^[b]

What does the record list as logP for C=C(CON=C(C)c1cccc(-c2ccccc2)n1)CON=C(C)c1cccc(-c2ccccc2)n1 [compound 567] ?
7.26

Look up logP for this compound: CCC(CC)(C(=O)ON=C(C)c1cccc(C)n1)C(=O)ON=C(C)c1cccc(C)n1 [compound 745]
4.49^[b]

Form field: reported logP of Cc1cc(C)nc(/C(N)=N/OCc2cccc(CO/N=C(\N)c3cc(C)cc(C)n3)c2)c1 [compound 726]
3.63^[b]

* * *

Test Protocol: logP determination by HPLC on a reversed-phase column (C 18), EEC Directive 79/831 Annex V.A8
Type: physicochemical
Condition Set: method marked [a] in Table 1
Recorded Metric: logP

Which logP reading was recorded for the compound Cc1cccc(C(=NOCC2(CON=C(c3cccc(C)n3)C3CC3)CC(c3ccc(Cl)cc3)=NO2)C2CC2)n1 (stereo not drawn) ?
4.53^[a]

What value of logP has been recorded for this entry: "CC(=NOCC(C)(C)CON=C(C)c1cccc(-c2ccc(C(C)(C)C)cc2)n1)c1cccc(-c2ccc(C(C)(C)C)cc2)n1"
7.36^[a]

So what does the record say about logP for "CC(=NOCC(C)(C)CON=C(C)c1cccc(-c2cc(Cl)cc(Cl)c2)n1)c1cccc(-c2cc(Cl)cc(Cl)c2)n1" ?
7.36^a]

Need logP, item Cc1cccnc1C(=NOCC(C)CON=C(c1ccccc1)c1ncccc1C)c1ccccc1 (stereo not drawn)
4.54^[a]

If you can, please state the reported logP value of Cc1cccc(C(=NOCCCON=C(c2ccccc2)c2cccc(C)n2)c2ccccc2)n1 (mixture of isomers) .
3.68^[a]

Can you share its logP? I mean this compound: "CC(=NOCC(C)(C)CON=C(C)c1ccc2c(n1)CCCCC2)c1ccc2c(n1)CCCCC2"
6.04^[a]

Give its logP value. Item: CCC(=NOCC1(CON=C(CC)c2cccc(C)n2)CC(c2ccccc2Cl)=NO1)c1cccc(C)n1 (stereo not drawn)
5.69^[a]

Need logP, item CCC(=NOCC1(CON=C(CC)c2cc(C)cc(C)n2)CC1)c1cc(C)cc(C)n1 (mixture of isomers)
3.22^[a]

# get_value(readout='logP', item= CC(=NOCC(C)CON=C(C)c1cccc(Cl)n1)c1cccc(Cl)n1 (stereo not drawn) )
6.08^[a]

// returns reported logP for input Cc1cccc(C(=NOCC(C)(C)CON=C(c2ccccc2)c2cccc(C)n2)c2ccccc2)n1 (mixture of isomers)
4.09^[a]

# input compound: Cc1cccc(C(=NOCC2(CON=C(c3cccc(C)n3)C3CC3)CC(c3cccc(Cl)c3)=NO2)C2CC2)n1 (stereo not drawn) ; wanted: its logP
4.54^[a]

Given the compound CCC1=NOC(CON=C(c2cccc(C)n2)C2CC2)(CON=C(c2cccc(C)n2)C2CC2)C1 (stereo not drawn) , what is its reported logP?
2.95^[a]

# lookup: logP of CCc1cc(-c2ccccc2)cc(C(C)=NOCC(C)CON=C(C)c2cc(-c3ccccc3)cc(CC)n2)n1 (stereo not drawn)
7.36^[a]

Consider the compound "CC(=NOCC(C)(C)CON=C(C)c1cccc(Cl)n1)c1cccc(Cl)n1" and give its measured logP.
6.50^[a]

Sample Cc1cccc(C(=NOCC2(CON=C(c3cccc(C)n3)C3CC3)CC(c3ccccc3)=NO2)C2CC2)n1 (stereo not drawn) — what was its logP?
3.80^[a]

* * *

Test Protocol: logP determination by HPLC on a reversed-phase column (C 18), EEC Directive 79/831 Annex V.A8
Format: physicochemical
Condition Set: value marked [b]
Would you mind telling me the reported logP of each entry?

For the compound C=C(CON=C(CC)c1nc(C)c(C)c(C)n1)CON=C(CC)c1nc(C)c(C)c(C)n1 [compound 516] , what logP is on record?
4.07^[b]

# logP lookup, item CC(=NOCCCCCCON=C(C)c1nc(C)c(C)s1)c1cccc(C)n1 (single isomer, unassigned) [compound 389]
5.84^[b] (isomer A)

Value lookup for logP; key = CCCC(CON=C(C)c1cccc(C)n1)CON=C(C)c1cccc(C)n1 (stereo not shown) [Compound 270]
5.14^[b]

# query: logP of entry CC(=NOCC(C)CON=C(C)c1nc(C)cc(C(F)(F)F)n1)c1nc(C)cc(C(F)(F)F)n1 (stereo not shown) [compound 273]
4.86^[b]

* * *

Test Protocol: logP determination by HPLC on a reversed-phase column (C 18), EEC Directive 79/831 Annex V.A8
Format: physicochemical
Condition Set: method marked [b] in Table 1
Recorded Metric: logP

# get_value(readout='logP', item= CCC(=NOCC1(CON=C(CC)c2cccc(C)n2)CC(c2ccccc2)=NO1)c1cccc(C)n1 (centres unmarked) [compound 611] )
5.08^[b]

Can you look up the measured logP of CC(=NOC/C=C\CON=C(C)c1ccccn1)c1ccccn1 [Compound 541] for me?
3.04^[b]

Quick check: logP of CC(=NOCC1(CON=C(C)c2cccc(C)n2)CCCCC1)c1cccc(C)n1 [Compound 561] ?
6.09^[b]

Give the measured logP of Cc1cc(C)nc(/C(N)=N/OCc2ccc(CO/N=C(\N)c3cc(C)cc(C)n3)cc2)c1 [compound 733] .
3,59^[b]

Need logP, item Cc1cccc(C=NOCC=CCON=Cc2cccc(C)n2)n1 [compound 737]
2.18^[b]

State the recorded logP for this entry: CCC(CON=C(C)c1cccc(C)n1)CON=C(C)c1cccc(C)n1 (centres unmarked) [Compound 677]
4.38^[b]

Give its logP value. Item: CC(=NOCC(C)(C)CON=C(c1cccc(C)n1)C(C)C)c1cccc(C)n1 [compound 547]
4.57^[b]

So what's the measured logP for this one? CC(=NOCc1cccc(CON=C(C)c2ccc(C)c(C)n2)n1)c1ccc(C)c(C)n1 [compound 741]
2.30^[b]

* * *

Assign logP to each entry below.
Test Protocol: logP determination by HPLC on a reversed-phase column (C 18), EEC Directive 79/831 Annex V.A8
Type: physicochemical
Condition Set: method marked [b] in Table 1
Procedure: The stated logP values were determined in accordance with EEC Directive 79/831 Annex V.A8 by HPLC (high performance liquid chromatography) on a reversed-phase column (C 18). Temperature: 43° C.

Looking for the measured logP of CCCC(=NOCC1(CON=C(CCC)c2cccc(C)n2)CC(C(C)(C)C)=NO1)c1cccc(C)n1 (stereo not shown) [compound 620] , can you help?
6.22^[b]

Would you kindly share the measured logP for CC(=NOCC1(CON=C(C)c2ccc(C)c(C)n2)CC(CC(C)C)=NO1)c1ccc(C)c(C)n1 (stereo not shown) [compound 630] ?
3.70^[b]

Request the reported logP associated with CC(=NOCC(CON=C(C)c1cc(C)cc(C)n1)c1ccccc1)c1cc(C)cc(C)n1 (stereo not shown) [Compound 554]
2.96^[b]

I'd like to know its logP. The compound in question is CCOC(CON=C(C)c1cccc(C)n1)CON=C(C)c1cccc(C)n1 (stereo not shown) [Compound 586]
2.87^b]

* * *

Test Protocol: logP determination by HPLC on a reversed-phase column (C 18), EEC Directive 79/831 Annex V.A8
Type: physicochemical
Condition Set: method marked [b] in Table 1
Recorded Metric: logP

Which measured logP value corresponds to CC(=NOCCC(C)ON=C(C)c1cc(C)cc(C)n1)c1cc(C)cc(C)n1 (stereo not shown) ?
2.00^[b]

Can you share its logP? I mean this compound: "CC(=NOCC(C)(C)CON=C(C)c1sc(C)nc1C)c1cccc(C)n1"
4.37^[b]

Field request: logP | item: CCCC1=NOC(CON=C(C)c2cccc(C)n2)(CON=C(C)c2cccc(C)n2)C1 (stereo not shown)
3.33^[b]

Quick one: logP for "CC(=NOc1ncnc(ON=C(C)c2cccc(C)n2)c1Cl)c1cccc(C)n1" ?
3.31^[b]

Bench note: what logP did CC(=NOCC1(CON=C(C)c2cc(C)cc(C)n2)CC(c2ccccc2Cl)=NO1)c1cc(C)cc(C)n1 (stereo not shown) show?
3.19^[b]

Which logP value is on record for CC(=NOCC(CON=C(C)c1cccc(C)n1)Cc1ccccc1)c1cccc(C)n1 (stereo not shown) ?
5.37^b]

For CC(=NOCC(C)CON=C(C)c1cccc(-c2ccccc2)n1)c1cccc(-c2ccccc2)n1 (stereo not shown) , what is its reported logP?
7.36^[b]

# lookup: logP of CCCC(=NOCC1(CON=C(CCC)c2cccc(C)n2)CC(CC(C)C)=NO1)c1cccc(C)n1 (stereo not shown)
6.22^[b]

Reported logP for "C=C(CON=C(C)c1ccc[nH]1)CON=C(C)c1ccc[nH]1" : what is it?
3.23^[b]

State the recorded logP for this entry: CC(=NOCC1(CON=C(C)c2cccc(C)n2)CC(C(C)(C)C)=NO1)c1cccc(C)n1 (stereo not shown)
3.85^[b]

What measured logP goes with CCCC1=NOC(CON=C(C)c2ccc(C)c(C)n2)(CON=C(C)c2ccc(C)c(C)n2)C1 (stereo not shown) ?
3.11^[b]

Given the compound CC(=NOCC(CON=C(C)c1nc(C)ccc1C)C(C)C)c1nc(C)ccc1C (single isomer, unassigned) [Compound 753] , what is its reported logP?
4.51^[b]

What value of logP has been recorded for this entry: CC(=NOCC(CON=C(C)c1nc(C)ccc1C)c1ccccc1)c1nc(C)ccc1C (single isomer, unassigned) [compound 754]
2.91^[b]

Look at this compound and give its reported logP. CCCC(=NOCC1(CON=C(CCC)c2cccc(C)n2)CC(c2cccc(Cl)c2)=NO1)c1cccc(C)n1 (stereo not shown)
6.58^[b]

GET /values?readout=logP&item= CC1=NOC(CON=C(C)c2ccc(C)c(C)n2)(CON=C(C)c2ccc(C)c(C)n2)C1 (stereo not shown)
2.07^[b]

Fill in: logP of CC(=NOCCCCCCON=C(C)c1sc(C)nc1C)c1cccc(C)n1 (single isomer, unassigned) [compound 542] is ___
3.99^[b] (isomer A)

Every entry's value here was drawn from patent US20100022559A1.
